- Test system: Candida albicans
- test-method-notes: Microbicidal activity against Candida albicans ATCC 10231 assessed as inhibition of colony growth incubated for 48 hrs followed by replating and further incubated for 48 hrs
- Type: functional
- test-parameters: ATCC 10231, 48 h
readout: MBC (µM)
Output spec: scalar in µM, unitless text.

stdin: I have this compound here, "CC(=O)N[C@@H](CCCCN)c1nc(C)sc1C(=O)N[C@@H](C)c1nc(C)sc1C(=O)N[C@@H](C)c1nc(CCCCN)sc1C(=O)N[C@@H](C)c1nc(C)sc1C(=O)N[C@@H](C)c1nc(CCCCN)sc1C(=O)N[C@@H](CCCCN)c1nc(C)sc1C(=O)N[C@@H](C)c1nc(CCCCN)sc1C(=O)N[C@@H](CCCCN)c1nc(C)sc1C(=O)N[C@@H](C)c1nc(C)sc1C(=O)N[C@@H](C)c1nc(C)sc1C(=O)N[C@@H](C)c1nc(CCCCN)sc1C(=O)N[C@@H](CCCCN)c1nc(C)sc1C(N)=O" , and I need its recorded MBC.
stdout: 62.5

* * *

- test-method-notes: Hemolytic activity in human RBC assessed as induction of hemolysis incubated for 1 hr
- Assay type: cell-based, Erythrocyte
- test-parameters: red blood cells (erythrocytes), read-out: HD50
readout: HC50 at 1 h

stdin: GET /values?readout=HC50 at 1 h&item= "CC(=O)N[C@@H](CCCCN)c1nc(C)sc1C(=O)N[C@@H](C)c1nc(C)sc1C(=O)N[C@@H](C)c1nc(CCCCN)sc1C(=O)N[C@@H](C)c1nc(C)sc1C(=O)N[C@@H](C)c1nc(CCCCN)sc1C(=O)N[C@@H](CCCCN)c1nc(C)sc1C(=O)N[C@@H](C)c1nc(CCCCN)sc1C(=O)N[C@@H](CCCCN)c1nc(C)sc1C(=O)N[C@@H](C)c1nc(C)sc1C(=O)N[C@@H](C)c1nc(C)sc1C(=O)N[C@@H](C)c1nc(CCCCN)sc1C(=O)N[C@@H](CCCCN)c1nc(C)sc1C(N)=O"
stdout: > 100 µM

* * *

- Test system: Bacillus subtilis
- test-method-notes: Antimicrobial activity against Bacillus subtilis ATCC 6633 assessed as inhibition of microbial growth incubated for 24 hrs
- Type: functional
- test-parameters: ATCC 6633, 24 h
readout: MIC (µM)
Report as a plain number; the unit µM is understood.

Illustrative cases are given below, each with its answer.
molecule	experimental-target	value-unit	MIC
CC(=O)N[C@@H](CCCNC(=N)N)c1nc(C)sc1C(=O)N[C@@H](C)c1nc(CCCNC(=N)N)sc1C(=O)N[C@@H](C)c1nc(C)sc1C(=O)N[C@@H](CCCNC(=N)N)c1nc(C)sc1C(=O)N[C@@H](C)c1nc(CCCNC(=N)N)sc1C(=O)N[C@@H](C)c1nc(C)sc1C(=O)N[C@@H](CCCNC(=N)N)c1nc(C)sc1C(=O)N[C@@H](C)c1nc(CCCNC(=N)N)sc1C(=O)N[C@@H](C)c1nc(C)sc1C(N)=O	Bacillus subtilis	µM	0.5
CC(=O)N[C@@H](CCCNC(=N)N)c1nc(C)sc1C(=O)N[C@@H](C)c1nc(CCCNC(=N)N)sc1C(=O)N[C@@H](C)c1nc(C)sc1C(=O)N[C@@H](CCCNC(=N)N)c1nc(C)sc1C(=O)N[C@@H](C)c1nc(CCCNC(=N)N)sc1C(=O)N[C@@H](C)c1nc(C)sc1C(=O)N[C@@H](CCCNC(=N)N)c1nc(C)sc1C(=O)N[C@@H](C)c1nc(CCCNC(=N)N)sc1C(=O)N[C@@H](C)c1nc(C)sc1C(=O)N[C@@H](CCCNC(=N)N)c1nc(C)sc1C(=O)N[C@@H](C)c1nc(CCCNC(=N)N)sc1C(=O)N[C@@H](C)c1nc(C)sc1C(N)=O	Bacillus subtilis	µM	0.6

Shift focus to the following entry.
stdin: What does the data say about its MIC? Entry: "CC(=O)N[C@@H](CCCCN)c1nc(C)sc1C(=O)N[C@@H](C)c1nc(CCCCN)sc1C(=O)N[C@@H](C)c1nc(C)sc1C(=O)N[C@@H](CCCCN)c1nc(C)sc1C(=O)N[C@@H](C)c1nc(CCCCN)sc1C(=O)N[C@@H](C)c1nc(C)sc1C(N)=O"
stdout: 30

Every entry's value here was drawn from ChEMBL document CHEMBL4619808.
